Reported IC50 by item:
target: Sodium-dependent noradrenaline transporter (Homo sapiens, UniProt P23975); experiment: Inhibition of norepinephrine reuptake at NET expressed in MDCK cells
Sequence (P23975 whole entry): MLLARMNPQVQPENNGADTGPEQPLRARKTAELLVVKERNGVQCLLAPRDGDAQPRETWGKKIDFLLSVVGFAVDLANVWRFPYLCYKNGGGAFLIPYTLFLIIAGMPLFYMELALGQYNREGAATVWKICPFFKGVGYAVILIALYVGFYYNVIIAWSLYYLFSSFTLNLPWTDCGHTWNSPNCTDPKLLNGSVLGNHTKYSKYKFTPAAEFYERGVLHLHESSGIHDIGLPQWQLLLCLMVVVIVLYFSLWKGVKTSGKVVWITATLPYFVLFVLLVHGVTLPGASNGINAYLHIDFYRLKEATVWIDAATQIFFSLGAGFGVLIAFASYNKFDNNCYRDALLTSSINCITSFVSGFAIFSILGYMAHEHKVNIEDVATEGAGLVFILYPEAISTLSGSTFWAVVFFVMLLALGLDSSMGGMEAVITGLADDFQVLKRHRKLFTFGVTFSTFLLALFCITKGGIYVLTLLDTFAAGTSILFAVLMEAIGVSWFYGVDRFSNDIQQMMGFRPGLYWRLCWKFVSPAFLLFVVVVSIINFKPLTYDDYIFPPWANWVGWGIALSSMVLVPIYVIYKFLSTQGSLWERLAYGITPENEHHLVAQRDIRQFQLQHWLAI

(Q) Can you share its IC50? I mean this compound: COc1cccc([C@]23CCC[C@H]2CN(C)C3)c1 (racemic)
(A) > 10 µM

(Q) Can you share its IC50? I mean this compound: COc1ccc([C@]23CCC[C@H]2CN(C)C3)cc1 (racemic)
(A) > 10 µM

Further cases:
(Q) Can you share its IC50? I mean this compound: CN1C[C@@H]2CCCC[C@]2(c2cccc3ccccc23)C1
(A) > 10 µM
